I'd be grateful if you could share measured Bas for these entries.
- Organism: Rattus norvegicus
- PROCEDURE_TEXT: Open TG-GATES - Regimen: Single
- Assay type: toxicity, organism-based, Sprague-Dawley
- Parameters: regimen Single, gender Male, age 6 weeks
- COND: in vivo, po, 1000 mg/kg, 9 h, tissue Blood, route gavage, dose level High
Give bare numbers, in %.

// known answers, use as guide
For the molecule shown here, O=C(OC[C@H]1O[C@@H](OC(=O)c2cc(O)c(O)c(OC(=O)c3cc(O)c(O)c(O)c3)c2)[C@H](OC(=O)c2cc(O)c(O)c(OC(=O)c3cc(O)c(O)c(O)c3)c2)[C@@H](OC(=O)c2cc(O)c(O)c(OC(=O)c3cc(O)c(O)c(O)c3)c2)[C@@H]1OC(=O)c1cc(O)c(O)c(OC(=O)c2cc(O)c(O)c(O)c2)c1)c1cc(O)c(O)c(OC(=O)c2cc(O)c(O)c(O)c2)c1 , give the reported Bas.
0

Consider next the molecule COC(=O)C1=C(C)NC(C)=C(C(=O)OC)C1c1ccccc1[N+](=O)[O-] in the same way.
0.4

Consider next the molecule CN/C(=N/CCSCc1nc[nH]c1C)NC#N in the same way.
0

Consider next the molecule Cc1nnc2n1-c1ccc(Cl)cc1C(c1ccccc1Cl)=NC2 in the same way.
0

--- query ---
For the molecule shown here, CNC(=C[N+](=O)[O-])NCCSCc1ccc(CN(C)C)o1 , give the reported Bas.
0

----------
- Organism: Rattus norvegicus
- PROCEDURE_TEXT: Open TG-GATES - Regimen: Single
- Assay type: toxicity, organism-based, Sprague-Dawley
- Design: regimen Single, gender Male, age 6 weeks
- COND: in vivo, po, 0 mg/kg, 24 h, tissue Plasma, route gavage, dose level Control
I'd be grateful if you could share measured TBIL for these entries.
One number for each entry, in mg/dL.

For the compound shown here, Nc1c2c(nc3ccccc13)CCCC2 [TACRINE] , give the reported TBIL.
0.032

Consider next the compound CN(C)CCC(c1ccc(Cl)cc1)c1ccccn1 (stereo unspecified) [CHLORPHENIRAMINE] in the same way.
0.04

Consider next the compound CN/C(=N/CCSCc1nc[nH]c1C)NC#N [CIMETIDINE] in the same way.
0.2

Working through the 3 compounds below one at a time, give TBIL for each.
1. Cc1nnc2n1-c1ccc(Cl)cc1C(c1ccccc1Cl)=NC2 [TRIAZOLAM]
2. CNC(=C[N+](=O)[O-])NCCSCc1ccc(CN(C)C)o1 [RANITIDINE]
3. COC(=O)C1=C(C)NC(C)=C(C(=O)OC)C1c1ccccc1[N+](=O)[O-] [NIFEDIPINE]

1. 0.054
2. 0.1
3. 0.03

----------
- Organism: Rattus norvegicus
- PROCEDURE_TEXT: Open TG-GATES - Regimen: Single
- Format: toxicity, organism-based, Sprague-Dawley
- Set-up: regimen Single, gender Male, age 6 weeks
- COND: in vivo, po, 300 mg/kg, 6 h, tissue Liver, route gavage, dose level Middle
ENDPOINT: LIVER (g)
Numbers only, in g.

For the molecule shown here, Cc1nnc2n1-c1ccc(Cl)cc1C(c1ccccc1Cl)=NC2 [TRIAZOLAM] , give the reported LIVER.
8.3

Working through the 4 molecules below one at a time, give LIVER for each.
1. CNC(=C[N+](=O)[O-])NCCSCc1ccc(CN(C)C)o1 [RANITIDINE]
2. COC(=O)C1=C(C)NC(C)=C(C(=O)OC)C1c1ccccc1[N+](=O)[O-] [NIFEDIPINE]
3. O=C(OC[C@H]1O[C@@H](OC(=O)c2cc(O)c(O)c(OC(=O)c3cc(O)c(O)c(O)c3)c2)[C@H](OC(=O)c2cc(O)c(O)c(OC(=O)c3cc(O)c(O)c(O)c3)c2)[C@@H](OC(=O)c2cc(O)c(O)c(OC(=O)c3cc(O)c(O)c(O)c3)c2)[C@@H]1OC(=O)c1cc(O)c(O)c(OC(=O)c2cc(O)c(O)c(O)c2)c1)c1cc(O)c(O)c(OC(=O)c2cc(O)c(O)c(O)c2)c1 [TANNIC ACID]
4. CN/C(=N/CCSCc1nc[nH]c1C)NC#N [CIMETIDINE]

1. 9.2
2. 7.9
3. 8.2
4. 9.3
